- protocol.summary: in vitro
- condition.label: human, hela cells, % viability
Documented viability at 28.5 h, 10 µM across a set of compounds
# unit: % | format: bare number

// below: answered compounds
INSERT INTO measurements (compound, readout_name, reading) VALUES
  ('O=c1c2cnc3ccnn3c2ccn1C1CCCC1 [CBK288074]', 'viability at 28.5 h, 10 µM', 107),
  ('CN(C(=O)C1CCN(S(=O)(=O)c2cn(C)cn2)CC1)C(c1ccc(F)cc1)c1ccccn1 (stereo not shown) [CBK060229]', 'viability at 28.5 h, 10 µM', 83.8),
  ('Cc1cccn2cc(C(=O)N3CC(C(=O)N4CCN(c5ccccc5)CC4)C3)nc12 [CBK285663]', 'viability at 28.5 h, 10 µM', 101);

I'd like to know its viability at 28.5 h, 10 µM. The compound in question is O=C(c1cccc(C(F)(F)F)c1)N1CCN(C(=O)c2ccc3c(c2)CCC3)CC1 [CBK298300] 91.5

Continue with Cc1cc(C)n(CCCNC(=O)c2ncoc2-c2ccc(F)cc2)n1 [CBK282357] 91.3

Then S=C(NCCc1ccccc1)Nc1ccc2c(c1)OCCO2 [CBK267048] ? 110

Hey, just so you know, these numbers are from paper PMC12040169.
